logD values by entry
- TEST CONDITIONS: pH 5.0
// return just the number, without any unit appended

// known answers, use as guide
Cc1ccc([C@@H](O)P(=O)(OCC(C)C)OCC(C)C)cc1 | 4.44
COc1ccc([C@H]2CC(=O)C3=C(C2)Nc2ccc4ccccc4c2[C@@H]3c2ccc3c(c2)OCO3)cc1 | 5.77
COc1cc([C@H]2NC(=O)NC(C)=C2C(=O)OC(C)C)ccc1OC(F)F | 3.75
CCN1C(=O)/C(=C2\SC(=S)N(Cc3ccc(OC)cc3)C2=O)c2cc(Br)ccc21 | 6.96
C=C1NC(=S)N[C@H](c2ccc(-c3ccc(C(C)=O)cc3)o2)[C@H]1C(=O)OC(C)(C)C | 4.53
Cc1ccc(N2C(=O)N(c3cccc(Cl)c3)[C@@H]3CS(=O)(=O)C[C@@H]32)cc1 | 3.56

*Q* Report logD for "CCCN(CCC)S(=O)(=O)c1ccc(C(=O)N2CC[C@@H]3c4ccccc4C(=O)N3C2)cc1" please.
*A* 4.55

*Q* Report logD for "CN(C)C(=O)[C@H]1OC(C)(C)O[C@@H]1C(=O)N(C)C" please.
*A* 1.49

*Q* Report logD for "CCCCN1C(=O)N(C)[C@@H]2[C@H]1N(C)C(=O)N2CCCC" please.
*A* 2.69

====

- TEST CONDITIONS: pH 5.0
Define the label as True when logD is strictly less than 5 and as False in all remaining cases.

*Q* Bench note: check whether "Cc1c(Cl)c(C(F)(F)F)nn1[C@@H](C)C(=O)N1CCOCC1" shows logD below 5
*A* True

*Q* Bench note: check whether "COc1ccc(Oc2c(C(F)(F)F)oc3cc(OC(=O)N4CCOCC4)ccc3c2=O)cc1" shows logD below 5
*A* True

*Q* Bench note: check whether "Cc1c(Nc2nc3ccccc3nc2Nc2cccc(Cl)c2)c(=O)n(-c2ccccc2)n1C" shows logD below 5
*A* False

*Q* Bench note: check whether "Cc1cccc(NC(=O)Cc2ccc(Br)cc2)c1C" shows logD below 5
*A* True

*Q* Bench note: check whether "CC1=C(C)C[C@@H]2C(=O)N(c3cccc(Br)c3)C(=O)[C@H]2C1" shows logD below 5
*A* True

*Q* Bench note: check whether "OCC#CC(O)(c1ccc(F)cc1)c1ccc(F)cc1" shows logD below 5
*A* True

====

logD values by entry
- ASSAY INFO: method code SF, from DOI: 10.1016/j.ejps.2012.10.019, PMID: 23131797
- TEST CONDITIONS: pH 7.3
// return just the number, without any unit appended

// known answers, use as guide
Cc1nc(-c2ccc(Cl)cc2)cs1 | 3.65
n1onc2c1NC1Nc3nonc3NC1N2 (centres undefined) | 0.3
Cc1cc2ccccc2c(=O)n1CC(=O)NCC(=O)N1CCN(c2cccc(Cl)c2)CC1 | 4.45
COc1ccccc1NC(=O)C1=C(C)Nc2nc(SCc3ccccc3F)nn2C1c1ccncc1 (centres undefined) | 4.66
Cn1c(SCc2cc(F)cc(F)c2)nnc1-c1ccc2nonc2c1 | 3.68
Cc1nccn1S(=O)(=O)c1ccc(Cl)cc1 | 2.93
C=CCn1c(SCC(=O)NCc2ccc(C(=O)OCC)cc2)nc2sc(C)c(C)c2c1=O | 4.83
COC(=O)c1sc(N)nc1C | 1.48

// moving on: another record for logD
*Q* Report logD for "CCc1ccccc1Nc1nc(N)nc(CSc2nnc(-c3ccc(OC(F)F)cc3)n2N)n1" please.
*A* 4.35
